Assay: physchem
Type: physicochemical
Conditions: 60 °C, aqueous with cosolvent or surfactant or cyclodextrin, thermodynamic from solid, meglumine 2% (w/v) to 10% (w/v) alone, 60° C., FIG. 1(B); read-out: solubility of Tecovirimat in water
observationType: solubility

input: Request the reported solubility associated with O=C(NN1C(=O)[C@@H]2[C@@H]3C=C[C@@H]([C@H]4C[C@@H]34)[C@@H]2C1=O)c1ccc(C(F)(F)F)cc1
output: 2000 to 10000 µg/mL

----------
Assay: physchem
Type: physicochemical
Details: 37 °C, aqueous with cosolvent or surfactant or cyclodextrin, thermodynamic from solid, cyclodextrin 20% (w/v) to 40% (w/v) alone, 37° C., FIG. 1(A); read-out: solubility of Tecovirimat in water
observationType: solubility

input: Request the reported solubility associated with O=C(NN1C(=O)[C@@H]2[C@@H]3C=C[C@@H]([C@H]4C[C@@H]34)[C@@H]2C1=O)c1ccc(C(F)(F)F)cc1
output: 5 to 18 mg/mL

----------
Assay: physchem
Format: physicochemical
Conditions: 25 °C, aqueous with cosolvent or surfactant or cyclodextrin, thermodynamic from solid, meglumine 5% (w/v) plus cyclodextrin 20% (w/v) to 40% (w/v), 25° C., FIG. 1(C); read-out: solubility of Tecovirimat in water
observationType: solubility

input: Request the reported solubility associated with O=C(NN1C(=O)[C@@H]2[C@@H]3C=C[C@@H]([C@H]4C[C@@H]34)[C@@H]2C1=O)c1ccc(C(F)(F)F)cc1 [Tecovirimat]
output: 20 to 80 mg/mL

----------
Test: physchem
Assay type: physicochemical
Conditions: 60 °C, aqueous with cosolvent or surfactant or cyclodextrin, thermodynamic from solid, cyclodextrin 20% (w/v) to 40% (w/v) alone, 60° C., FIG. 1(A); read-out: solubility of Tecovirimat in water
observationType: solubility

input: Request the reported solubility associated with O=C(NN1C(=O)[C@@H]2[C@@H]3C=C[C@@H]([C@H]4C[C@@H]34)[C@@H]2C1=O)c1ccc(C(F)(F)F)cc1
output: 5 to 20 mg/mL

----------
Experiment: physchem
Format: physicochemical
Details: 25 °C, aqueous with cosolvent or surfactant or cyclodextrin, thermodynamic from solid, meglumine 2% (w/v) to 10% (w/v) alone, 25° C., FIG. 1(B); read-out: solubility of Tecovirimat in water
observationType: solubility

input: Request the reported solubility associated with O=C(NN1C(=O)[C@@H]2[C@@H]3C=C[C@@H]([C@H]4C[C@@H]34)[C@@H]2C1=O)c1ccc(C(F)(F)F)cc1 [Tecovirimat]
output: 2000 to 7000 µg/mL

----------
Experiment: physchem
Assay type: physicochemical
Conditions: 60 °C, aqueous with cosolvent or surfactant or cyclodextrin, thermodynamic from solid, meglumine 5% (w/v) plus cyclodextrin 20% (w/v) to 40% (w/v), 60° C., FIG. 1(C); read-out: solubility of Tecovirimat in water
observationType: solubility

input: Request the reported solubility associated with O=C(NN1C(=O)[C@@H]2[C@@H]3C=C[C@@H]([C@H]4C[C@@H]34)[C@@H]2C1=O)c1ccc(C(F)(F)F)cc1
output: 50 to 150 mg/mL

----------
Experiment: physchem
Format: physicochemical
Details: 37 °C, aqueous with cosolvent or surfactant or cyclodextrin, thermodynamic from solid, meglumine 2% (w/v) to 10% (w/v) alone, 37° C., FIG. 1(B); read-out: solubility of Tecovirimat in water
observationType: solubility

input: Request the reported solubility associated with O=C(NN1C(=O)[C@@H]2[C@@H]3C=C[C@@H]([C@H]4C[C@@H]34)[C@@H]2C1=O)c1ccc(C(F)(F)F)cc1
output: 2000 to 9000 µg/mL
